B1: tRNA (parent)
chain: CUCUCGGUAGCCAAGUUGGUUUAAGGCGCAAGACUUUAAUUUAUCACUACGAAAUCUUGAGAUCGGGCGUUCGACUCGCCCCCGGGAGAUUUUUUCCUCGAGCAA

Variants of: B1
Experiment: nonsense suppression (GFP-seq) (ratio to wild type); higher = more function; SUP4oc tRNA, yeast GFP reporter sort-seq
This sample holds only a part of the variants without activity.
reportedMetric: nonsense suppression
Answers are plain numbers.

Record excerpt, results attached:
mutations | nonsense suppression
U21G U22C | 1.09
U4A C11U | 0.0306
U20C U22C A54U | 0.412

Each variant below has a recorded value; state its nonsense suppression.
1. U20A U76C
2. U16G A24U

[0.719, 0.221]

Each variant below has a recorded value; state its nonsense suppression.
1. U4C G73A
2. A13U C29U C81U

1.04
0.0757

Each variant below has a recorded value; state its nonsense suppression.
1. U16A A54U
2. G61A G73A
3. U21A C79U

1. 1.06
2. 0.202
3. 0.444
